# recordedConditions: in sec-butanol, 308.15 K
quantityKind: solubility (mole fraction)

> print(dat)
                                   compound                quantitykind  measuredvalue
1  CC1=C(O)C(=O)C(C)O1 (stereo unspecified)  solubility (mole fraction)          0.318

* * *

# recordedConditions: in DMF, 288.15 K
quantityKind: solubility (mole fraction)

> print(dat)
                                   compound  measuredvalue
1  CC1=C(O)C(=O)C(C)O1 (stereo unspecified)          0.307

* * *

# recordedConditions: in isopropanol, 283.15 K
quantityKind: solubility (mole fraction)

> print(dat)
                                   compound                quantitykind  measuredvalue
1  CC1=C(O)C(=O)C(C)O1 (stereo unspecified)  solubility (mole fraction)          0.211

* * *

# recordedConditions: in acetone, 278.15 K
quantityKind: solubility (mole fraction)

> print(dat)
                                   compound  measuredvalue
1  CC1=C(O)C(=O)C(C)O1 (stereo unspecified)          0.127

* * *

# recordedConditions: in DMF, 283.15 K
quantityKind: solubility (mole fraction)

> print(dat)
                                   compound                quantitykind  measuredvalue
1  CC1=C(O)C(=O)C(C)O1 (stereo unspecified)  solubility (mole fraction)          0.281

* * *

# recordedConditions: in methyl acetate, 288.15 K
quantityKind: solubility (mole fraction)

> print(dat)
                                   molecule  measuredvalue
1  CC1=C(O)C(=O)C(C)O1 (stereo unspecified)          0.189

* * *

# recordedConditions: in 1,4-dioxane, 303.15 K
quantityKind: solubility (mole fraction)

> print(dat)
                                   molecule  measuredvalue
1  CC1=C(O)C(=O)C(C)O1 (stereo unspecified)          0.357

* * *

# recordedConditions: in chloroform, 283.15 K
quantityKind: solubility (mole fraction)

> print(dat)
                                   compound  measuredvalue
1  CC1=C(O)C(=O)C(C)O1 (stereo unspecified)          0.281

* * *

# recordedConditions: in methyl acetate, 278.15 K
quantityKind: solubility (mole fraction)

> print(dat)
                                   compound                quantitykind  measuredvalue
1  CC1=C(O)C(=O)C(C)O1 (stereo unspecified)  solubility (mole fraction)          0.139

* * *

# recordedConditions: in chloroform, 308.15 K
quantityKind: solubility (mole fraction)

> print(dat)
                                   molecule  measuredvalue
1  CC1=C(O)C(=O)C(C)O1 (stereo unspecified)          0.439

* * *

# recordedConditions: in sec-butanol, 298.15 K
quantityKind: solubility (mole fraction)

> print(dat)
                                   compound  measuredvalue
1  CC1=C(O)C(=O)C(C)O1 (stereo unspecified)          0.225

* * *

# recordedConditions: in methyl acetate, 313.15 K
quantityKind: solubility (mole fraction)

> print(dat)
                                   compound  measuredvalue
1  CC1=C(O)C(=O)C(C)O1 (stereo unspecified)          0.386

* * *

# recordedConditions: in acetone, 283.15 K
quantityKind: solubility (mole fraction)

> print(dat)
                                   compound                quantitykind  measuredvalue
1  CC1=C(O)C(=O)C(C)O1 (stereo unspecified)  solubility (mole fraction)          0.151

* * *

# recordedConditions: in acetone, 308.15 K
quantityKind: solubility (mole fraction)

> print(dat)
                                   compound  measuredvalue
1  CC1=C(O)C(=O)C(C)O1 (stereo unspecified)          0.329
